# TARGET_DESC: VP1 capsid protein on BKV pseudovirions of genotype IVc2 (A-66H; AB369093) (BK virus genotype IVc2 (A-66H))
# MEASUREMENT_NOTES: cell-based or functional assay
This section presents binders with their documented Neutralization PSV IC50 values.
Respond numerically; units are µg/mL and should not be typed.

INSERT INTO results (binder, value_units, experimental_value) VALUES
  ('antibody F11P5 (antibody, V domains shown) VH: QVQLVQSGSELKKPGASVKVSCKASAYTFTNSAINWVRQAPGQGLEWMGWINTNTGNPAYAQGFRGRFVFSLDTSVSEAYLQISNLKAEDTATYYCTVPYNFGGDHNSYYFFGVDIWGQGTTVTVSS VL: QSALTQPASVSGSPGQSITISCTGSSSDVGSYNLVSWFQQHPAKAPKVMIYEGTKRPSGVSDRFSGSKSGNTASLTISGLQAEDEADYYCCSYAGSNTFVFGTGTKVSVL', 'µg/mL', 46.5);

Shift focus to the following entry.
Form field: reported Neutralization PSV IC50 of antibody C4P6 (antibody, V domains shown) VH: QVQLQESGPGLVRPSETLSLTCTVSGGSISPYYWNWIRQPPGKGLEWIGYIYYSGNTKYNPSLKSRVTISVDTSKNQFSLKLSSVSAADTAVYYCARDSCSGTCYLGGNWFDPWGQGTLVTVSS VL: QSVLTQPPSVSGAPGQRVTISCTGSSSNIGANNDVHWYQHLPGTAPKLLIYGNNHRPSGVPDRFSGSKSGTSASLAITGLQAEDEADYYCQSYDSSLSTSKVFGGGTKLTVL 0.726
